Measured pEC50, listed per entry for reference.
- Test system: HCV 1b genotype
- test description: HCV replicon assay (HCV-neo replicon cells, wild-type)
- Type: cell-based, Hepatitis C virus
- condition info: Hepatitis C virus, HCV 1b genotype replicon; class symbols; read-out: EC50 Range against HCV 1b
pEC50: −log10 of the molar value.

Previously resolved entries follow.
Record "Cc1noc(C)c1C(=O)N1CCC[C@H]1C(=O)Nc1ccc(-c2cnc(-c3ccc(NC(=O)[C@@H]4CCCN4C(=O)c4c(C)noc4C)cc3)o2)cc1" , field pEC50: 6.00 to 7.00

Record "O=C(Nc1ccc(-c2cnc(-c3ccc(NC(=O)[C@@H]4CCCN4C(=O)c4cccs4)cc3)o2)cc1)[C@@H]1CCCN1C(=O)c1cccs1" , field pEC50: 6.00 to 7.00

Record "COc1cc(C(=O)N[C@@H](C)C(=O)Nc2ccc(-c3nnc(-c4ccc(NC(=O)[C@H](C)NC(=O)c5cc(Cl)nc(OC)c5)cc4)o3)cc2)cc(Cl)n1" , field pEC50: 5.00 to 6.00

Record "O=C(Nc1ccc(-c2cnc(-c3ccc(NC(=O)[C@@H]4CCCN4C(=O)[C@H]4CCCO4)cc3)o2)cc1)[C@@H]1CCCN1C(=O)[C@H]1CCCO1" , field pEC50: 7.00 to 8.34

Please find the next molecule below.
Record "CC(C)(C)O[C@@H]1C[C@@H](C(=O)Nc2ccc(-c3cnc(-c4ccc(NC(=O)[C@@H]5C[C@@H](OC(C)(C)C)CN5C(=O)C5CCC5)cc4)o3)cc2)N(C(=O)C2CCC2)C1" , field pEC50: 5.00 to 6.00

---

- Tested on: HCV 1b genotype
- test description: HCV replicon assay (HCV-neo replicon cells, wild-type)
- Format: cell-based, Hepatitis C virus
- condition info: Hepatitis C virus, HCV 1b genotype replicon; class symbol; read-out: EC50 Range against HCV 1b
metric name: EC50

Previously resolved entries follow.
For the compound "C[C@H](NC(=O)[C@@H](O)c1ccccc1)C(=O)Nc1ccc(-c2cnc(-c3ccc(NC(=O)[C@H](C)NC(=O)[C@@H](O)c4ccccc4)cc3)o2)cc1" , the measured EC50 on HCV 1b genotype was 4.57 to 99 nM

For the compound "O=C(Nc1ccc(-c2cnc(-c3ccc(NC(=O)[C@@H]4CCCN4C(=O)[C@@H](O)c4ccccc4)cc3)o2)cc1)[C@@H]1CCCN1C(=O)[C@@H](O)c1ccccc1" , the measured EC50 on HCV 1b genotype was 4.57 to 99 nM

For the compound "O=C(Nc1ccc(-c2cc(-c3ccc(NC(=O)[C@@H]4C[C@@H](O)CN4C(=O)Cc4ccccc4)cc3)[nH]n2)cc1)[C@@H]1C[C@@H](O)CN1C(=O)Cc1ccccc1" , the measured EC50 on HCV 1b genotype was 4.57 to 99 nM

Please find the next compound below.
For the compound "CCOc1ccccc1C(=O)N1CCC[C@H]1C(=O)Nc1ccc(-c2nnc(-c3ccc(NC(=O)[C@@H]4CCCN4C(=O)c4ccccc4OCC)cc3)o2)cc1" , the measured EC50 on HCV 1b genotype was 1000 to 10000 nM

---

- Test system: HCV 1b genotype
- test description: HCV replicon assay (HCV-neo replicon cells, wild-type)
- Assay type: cell-based, Hepatitis C virus
- condition info: Hepatitis C virus, HCV 1b genotype replicon; class symbol; read-out: EC50 Range against HCV 1b
pEC50: −log10 of the molar value.
Measured pEC50, listed per entry for reference.

Previously resolved entries follow.
For the compound "O=C(Nc1ccc(-c2nnc(-c3ccc(NC(=O)[C@@H]4CCCCN4C(=O)OCc4ccccc4)cc3)o2)cc1)[C@@H]1CCCCN1C(=O)OCc1ccccc1" , the measured pEC50 on HCV 1b genotype was 6.00 to 7.00

For the compound "O=C(O)Cc1nc(-c2ccc(NC(=O)[C@@H]3CCCN3C(=O)OCc3ccccc3)cc2)c(-c2ccc(NC(=O)[C@@H]3CCCN3C(=O)OCc3ccccc3)cc2)o1" , the measured pEC50 on HCV 1b genotype was 5.00 to 6.00

For the compound "CCC(=O)N1CCC[C@H]1C(=O)Nc1ccc(-c2cnc(-c3ccc(NC(=O)[C@@H]4CCCN4C(=O)CC)cc3)o2)cc1" , the measured pEC50 on HCV 1b genotype was 6.00 to 7.00

For the compound "C[C@H](NC(=O)OCc1ccccc1)C(=O)Nc1ccc(-c2nncn2-c2ccc(NC(=O)[C@H](C)NC(=O)OCc3ccccc3)cc2)cc1" , the measured pEC50 on HCV 1b genotype was 5.00 to 6.00

For the compound "COc1cccc2c(C(=O)N3CCC[C@H]3C(=O)Nc3ccc(-c4ccc(-c5ccc(NC(=O)[C@@H]6CCCN6C(=O)[C@@H](c6ccccc6)N(C)C)cc5)o4)cc3)nc(Cl)cc12" , the measured pEC50 on HCV 1b genotype was > 8.34

For the compound "CC(=O)N1CCC[C@H]1C(=O)Nc1ccc(-c2cnc(-c3ccc(NC(=O)[C@@H]4CCCN4C(=O)Cc4ccccc4)cc3)o2)cc1" , the measured pEC50 on HCV 1b genotype was 6.00 to 7.00

For the compound "CN(C)[C@@H](C(=O)N1[C@H](C(=O)N2CCC[C@H]2C(=O)Nc2ccc(-c3cnc(-c4ccc(NC(=O)[C@@H]5CCCN5C(=O)[C@@H]5C[C@@H]6C[C@@H]6N5C(=O)[C@@H](c5ccccc5)N(C)C)cc4)o3)cc2)C[C@@H]2C[C@@H]21)c1ccccc1" , the measured pEC50 on HCV 1b genotype was 6.00 to 7.00

For the compound CO[C@H]1C[C@@H](C(=O)Nc2ccc(-c3cnc(-c4ccc(NC(=O)[C@@H]5C[C@H](OC)CN5C(=O)C(NC(C)=O)c5ccccc5)cc4)o3)cc2)N(C(=O)C(NC(C)=O)c2ccccc2)C1 (some centres unmarked) , the measured pEC50 on HCV 1b genotype was 7.00 to 8.34

More entries:
For the compound "CO[C@H](C(=O)N1CCC[C@H]1C(=O)Nc1ccc(-c2nc[nH]c2-c2ccc(NC(=O)[C@@H]3CCCN3C(=O)[C@@H](OC)c3ccccc3)cc2)cc1)c1ccccc1" , the measured pEC50 on HCV 1b genotype was 7.00 to 8.34

For the compound "O=C(Nc1ccc(-c2cnc(-c3ccc(NC(=O)N[C@@H]4CCN(C(=O)[C@H](O)c5ccccc5)C4)cc3)o2)cc1)N[C@@H]1CCN(C(=O)[C@H](O)c2ccccc2)C1" , the measured pEC50 on HCV 1b genotype was 6.00 to 7.00

For the compound "COc1cccc2c(C(=O)N3CCC[C@H]3C(=O)Nc3ccc(-c4cnc(-c5ccc(NC(=O)[C@@H]6CCCN6C(=O)c6nc(Cl)cc7c(OC)cccc67)cc5)o4)cc3)nc(Cl)cc12" , the measured pEC50 on HCV 1b genotype was 6.00 to 7.00
